Where these numbers come from: patent US8273762B2

# System Under Test: human H3 receptor (SK-N-MC cells) (Homo sapiens, UniProt Q9Y5N1)
# Construct: expressed in transfected cells; host or cells: SK-N-MC sublines with CRE-beta-galactosidase reporter
# Sequence (Q9Y5N1 whole entry): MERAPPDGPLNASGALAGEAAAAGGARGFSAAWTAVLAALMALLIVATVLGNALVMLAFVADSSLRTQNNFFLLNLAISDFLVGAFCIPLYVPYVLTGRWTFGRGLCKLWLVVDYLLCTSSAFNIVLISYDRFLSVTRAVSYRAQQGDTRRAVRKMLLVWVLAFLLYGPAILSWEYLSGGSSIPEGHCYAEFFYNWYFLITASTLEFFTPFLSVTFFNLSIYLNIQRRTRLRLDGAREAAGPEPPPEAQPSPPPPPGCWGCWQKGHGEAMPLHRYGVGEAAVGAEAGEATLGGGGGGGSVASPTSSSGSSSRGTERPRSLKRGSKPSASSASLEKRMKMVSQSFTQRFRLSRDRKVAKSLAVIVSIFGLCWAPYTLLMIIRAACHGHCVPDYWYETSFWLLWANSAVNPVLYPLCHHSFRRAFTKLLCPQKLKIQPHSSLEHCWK
# Experiment: Cyclic AMP accumulation (β-galactosidase reporter, Schild analysis vs histamine)
# Assay type: cell-based
# Reported Conditions: read-out: H3 pA2 (converted)
Use 2 nM as the dividing line for Kb, with the line itself on the TRUE side and lower values as FALSE.

See these solved cases before continuing.
- Compound: "COc1cccc([C@H]2CN3CCC[C@H]3c3cc(OCCCN4CCCCC4)ccc32)c1 (relative stereo) [Example 10A]"
  Label Value: "FALSE"
- Compound: "COc1ccc([C@@H]2CN3CCC[C@H]3c3cc(C#CCCN4CCCCC4)ccc32)cc1 (relative stereo) [Example 96A]"
  Label Value: "TRUE"
- Compound: "CSc1ccc([C@@H]2CN3CCC[C@H]3c3ccc(C#CCCN4CCCCC4)cc32)cc1 (relative stereo) [Example 97A]"
  Label Value: "FALSE"

## Input Is Kb for `COc1ccc([C@@H]2CN3CCC[C@@H]3c3cc(OCCCN4CCOCC4)ccc32)cc1` at or above 2 nM?
## Output TRUE

## Input Dear colleague, could you confirm whether Clc1cccc([C@@H]2CN3CCC[C@H]3c3cc(OCCCN4CCCCC4)ccc32)c1 (relative stereo) [Example 11A] has Kb at or above 2 nM?
## Output FALSE
